# test.name: Cell viability assay (EZ-Cytox), cytotoxicity
# Assay type: cell-based
# condition.parameters: human, HepAD38 cells, @100 μM, read-out: Cytotoxicity % Livability (@100 μM)
Categorized via viability at 65 h, 100 µM: low class (below 20%), middle class (20% to below 90%), high class (90% or more)

molecule: COc1ccc(N(Cc2cc(OC)[nH]n2)C(=O)Nc2ccc(F)c(Cl)c2)cn1 [Example 64]
class.name: high class
--
molecule: COc1ncc(N(Cc2cc(C(F)(F)F)[nH]n2)C(=O)Nc2ccc(F)c(Cl)c2)cc1C#N [Example 119]
class.name: low class
--
molecule: Cn1cc(N(Cc2n[nH]c3c2CCCC3)C(=O)Nc2ccc(F)c(Cl)c2)cn1 [Example 24]
class.name: middle class
--
molecule: COc1ccc(N(Cc2cc(C(F)(F)F)[nH]n2)C(=O)Nc2ccc(F)c(F)c2)cn1 [Example 168]
class.name: middle class
--
molecule: COc1cc(N(Cc2n[nH]c3c2CCCC3)C(=O)Nc2ccc(F)c(Cl)c2)ccn1 [Example 54]
class.name: low class
--
molecule: COc1ccc(N(Cc2n[nH]c3c2CCCO3)C(=O)Nc2ccc(F)c(Cl)c2)cn1 [Example 63]
class.name: high class

Kindly consider the entry below.
Prompt line: Lab note: which band did COc1ncc(N(Cc2cc(C#N)[nH]n2)C(=O)Nc2ccc(F)c(C(F)F)n2)cn1 [Example 212] land in?
Response line: high class

Provenance of the data: patent US20250009742A1
